Target: T1, RHPN1, Q8TCX5
T1 sequence (Q8TCX5 508-602, limits assumed, looked up): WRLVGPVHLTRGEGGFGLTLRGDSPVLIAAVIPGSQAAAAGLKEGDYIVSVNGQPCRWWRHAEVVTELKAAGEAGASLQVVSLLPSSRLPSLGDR
Experiment: holdup assay
Set-up: key: below the threshold = too weak to quantify, mostly under pKd 3.1 to 4
Conditions: plain residues with an end cap or a label only (N-terminal biotin on a linker: ttds)
Outcome: Criterion met for pKd of at least 4; Criterion not met for anything lower.

[
  {
    "binder": "KKYVDAETSL [SLC4A7, Q9Y6M7]",
    "label_value": "Criterion met"
  },
  {
    "binder": "EVVHTPETSV [SLC16A3, O15427]",
    "label_value": "Criterion met"
  },
  {
    "binder": "NDPAWDETNL [ARHGEF7, Q14155;Q14155-1]",
    "label_value": "Criterion met"
  },
  {
    "binder": "FHPLGADSQV [SLC2A1, P11166]",
    "label_value": "Criterion met"
  },
  {
    "binder": "DKDPHSETAL [TMIGD1, Q6UXZ0]",
    "label_value": "Criterion not met"
  }
]
